# key: entry, value: growth
test system: T-47D breast; assay: NCI-60 one-dose screen, 48 h (100 = growth as untreated, 0 = no growth, -100 = all killed); conditions: 10 µM unless noted
About 83,000 compounds went through this panel and 20% of them were active in at least one assay; those are over-represented in the sample as a whole.
Your answer should be a plain number; it is taken to be in %.

Using T-47D breast as the test system, report measured growth of `CSc1nc(N)nc2c1ncn2C` . 90.3

Using T-47D breast as the test system, report measured growth of `Cc1cccc(NC(=O)CCc2ccc(N3C(N)=NC(N)=NC3(C)C)cc2)c1` . 73.1

Using T-47D breast as the test system, report measured growth of `COc1ccc2c(c1)C(=O)/C(=C/c1ccc(OCC(=O)c3ccc(Cl)cc3)cc1)O2` . 72.2

Using T-47D breast as the test system, report measured growth of `CCNc1cc(S(=O)(=O)O)ccc1C` . 90

Using T-47D breast as the test system, report measured growth of `O=C(Nc1ccc(-n2ccc3c(NC(=O)c4ccccc4)nccc32)cc1)Nc1cccc(C(F)(F)F)c1` . 57.6

Kindly consider the entry below.
Using T-47D breast as the test system, report measured growth of `Cc1c(Cl)ccc2c(C(=O)Cl)cc(-c3ccccc3)nc12` . 90.9

====

tested on: U251 CNS; assay: NCI-60 one-dose screen, 48 h (100 = growth as untreated, 0 = no growth, -100 = all killed); details: 10 µM unless noted
This is part of a sample that, as a whole, favours compounds with a hit. Of some 83,000 tested, about 20% had one in any assay. Calls of active or inactive are those of the source. Rule for the calls: active = growth percent below 10; inactive = the rest.
# key: entry, value: growth

Sample records with growth:
Using U251 CNS as the test system, report measured growth of `COc1ccc(Cl)cc1NC(=O)c1cc2c([nH]1)-c1nc(N)sc1CCC2` . 101% (inactive)

Using U251 CNS as the test system, report measured growth of CC(C)(C)NC(C1=CC(C)(C)c2ccccc2C1=O)c1ccccc1 (stereo not given) . -67.7% (active)

Others:
Using U251 CNS as the test system, report measured growth of `COc1cc(C(=O)C[n+]2ccccc2)ccc1OC(C)=O` . 98.9% (inactive)

Using U251 CNS as the test system, report measured growth of `O=C(C[n+]1ccccc1Cl)c1ccc2c(c1)CCCC2` . 97.7% (inactive)

Using U251 CNS as the test system, report measured growth of `Cc1ccc(N(CC2=NCCN2)c2cccc(O)c2)cc1` . 88.8% (inactive)

Using U251 CNS as the test system, report measured growth of `COc1cc(/C=C/C(=O)c2c(C)n([O-])c3cc(C)c(C)cc3[n+]2=O)cc(OC)c1OC` . 45.8% (inactive)

Using U251 CNS as the test system, report measured growth of `COc1cccc(-c2nc3sccn3c2-c2ccnc(NCCNC(=O)Nc3cccc(C(F)(F)F)c3)n2)c1` . 58.1% (inactive)

Using U251 CNS as the test system, report measured growth of `Cc1ccc(-c2nc3c(N=Nc4ccc(S(N)(=O)=O)cc4)c(N)nn3c(N)c2C#N)cc1` . 31.8% (inactive)

Using U251 CNS as the test system, report measured growth of `COc1ccc(-c2[nH]c3ccccc3c2/C=C(\C#N)S(=O)(=O)c2ccccc2)cc1` . 24.2% (inactive)

Using U251 CNS as the test system, report measured growth of `CCNC(=O)Oc1ccc(/C(=C(/CC)Cc2ccccc2)c2ccc(OCCN3CCOCC3)cc2)cc1` . 52.8% (inactive)
